# measuredOn: Amino acid transporter (Rattus norvegicus) (UniProt Q9Z1J7)
# Sequence (Q9Z1J7 as listed by the source): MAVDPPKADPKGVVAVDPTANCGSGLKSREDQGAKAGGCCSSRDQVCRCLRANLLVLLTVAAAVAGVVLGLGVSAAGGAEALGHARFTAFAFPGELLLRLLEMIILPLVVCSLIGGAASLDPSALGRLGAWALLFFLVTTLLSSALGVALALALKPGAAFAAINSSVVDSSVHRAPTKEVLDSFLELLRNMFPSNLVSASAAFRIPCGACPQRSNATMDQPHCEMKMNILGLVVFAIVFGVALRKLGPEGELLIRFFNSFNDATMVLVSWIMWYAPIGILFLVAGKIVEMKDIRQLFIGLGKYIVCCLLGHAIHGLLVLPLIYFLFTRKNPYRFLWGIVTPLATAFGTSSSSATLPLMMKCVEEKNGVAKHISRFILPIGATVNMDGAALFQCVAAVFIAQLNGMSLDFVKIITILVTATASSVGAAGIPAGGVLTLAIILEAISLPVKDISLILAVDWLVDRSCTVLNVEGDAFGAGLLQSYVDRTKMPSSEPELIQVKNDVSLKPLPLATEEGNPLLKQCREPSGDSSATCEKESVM
# measurementProtocol: Inhibition of ASCT2 mediated [3H]-D-serine uptake in rat hippocampal astrocytes at 1 mM after 5 mins by beta counting analysis
# Assay type: cell-based
measuredParameter: inhibition

Per the records, this molecule ( O=C(O)[C@H]1NCC[C@@H]1c1ccccc1 ) has inhibition equal to > 25%

Entry under test: NC(C(=O)O)C(O)c1cccnc1 (racemic) . Its inhibition was > 25%

Given item C[C@@H](O)[C@H](N)C(=O)O , the value recorded as its inhibition is > 25%

Looking up NC(CCC(=O)Nc1ccccc1)C(=O)O (stereo not given) , I see its inhibition listed as > 25%

Notebook: NC(C(=O)O)c1cc(O)ccc1Cl (stereo not given) , inhibition read as > 25%

Record summary for NC(C(=O)O)c1ccccc1F (stereo not given) : reported inhibition = > 25%

Kindly note the recorded inhibition for Cc1cc(C(N)C(=O)O)ccc1F (stereo not given) , which is > 25%

inhibition reading for N[C@@H](Cc1ccc2ccccc2c1)C(=O)O : > 25%

The molecule listed as N[C@@H](Cc1csc2ccccc12)C(=O)O shows inhibition equal to > 25%

The molecule NC(C(=O)O)C12CC3CC(CC(C3)C1)C2 (stereo not given) showed inhibition equal to > 25%

Note to self: inhibition recorded for NC(C(=O)O)C1C2CC3CC(C2)CC1C3 (stereo not given) was > 25%

Briefly, inhibition measured for C[C@H]1CCN[C@@H]1C(=O)O : > 25%

For N[C@@H](Cc1ccc(O)c(O)c1)C(=O)O the molecule record lists inhibition as > 25%

Please fill in: inhibition reported for CCOC(=O)CC(N)C(=O)O (stereo not given) = > 25%

Item: NC(C(=O)O)c1ccccc1Cl (stereo not given) | inhibition: > 25%

The reported inhibition of the molecule N[C@H](C(=O)O)c1ccc(O)cc1 [OXFENICINE] was > 25%

// field: inhibition; key: O=C(O)C1C[C@@H](Cc2cccc(C(F)(F)F)c2)CN1 (single isomer, unassigned) ; value = > 25%

Item: N[C@H](CO)C(=O)O [(D)-SERINE] | inhibition: > 25%

// sample O=C(O)[C@@H]1C[C@H](Cc2cccc(Cl)c2)CN1 , its inhibition was > 25%

Per the records, this molecule ( O=C(O)[C@@H]1C[C@@H](F)CN1 ) has inhibition equal to > 25%

Record NC(CC(=O)c1ccccc1)C(=O)O (stereo not given) . Reported inhibition: > 25%

Sure, the documented inhibition for C#CC[C@H]1CN[C@H](C(=O)O)C1 is > 25%

The molecule listed as COc1ccc(C(N)C(=O)O)cc1 (stereo not given) has a reported inhibition of > 25%

Value of measured inhibition for the entry CC(=O)OC[C@H](N)C(=O)O : > 25%

# molecule NC1(C(=O)O)CCC1 ; its inhibition = > 25%

Just so you know, measured inhibition for O=C(O)C1C[C@@H](Cc2ccncc2)CN1 (single isomer, unassigned) came out at > 25%

inhibition recorded for this molecule, Nc1ccccc1C(=O)C[C@@H](N)C(=O)O , is > 25%

Data point: NC(C(=O)O)C(O)c1cccs1 (racemic) ; inhibition = > 25%

The molecule O=C(Nc1cccc2ccccc12)[C@@H]1C[C@@H](O)CN1 showed inhibition equal to > 25%

// recorded inhibition for O=C(/C=C/c1c(C(=O)O)[nH]c2cc(Cl)cc(Cl)c12)Nc1ccccc1 : > 25%

inhibition recorded for this molecule, NC(C(=O)O)c1ccc(CO)c(O)c1 (stereo not given) , is > 25%

get_value(item= N[C@@H](C(=O)O)C1=CCC=CC1 , readout=inhibition) returns > 25%

inhibition reported for this molecule N[C@@H](Cc1c[nH]c2ccc(F)cc12)C(=O)O : > 25%

// sample CC(C)(S)[C@H](N)C(=O)O , its inhibition was > 25%

# inhibition of C[C@H](N)C(=O)O = > 25%

The measured inhibition associated with N[C@@H](CC1CCCC1)C(=O)O reads > 25%

Field inhibition (entry NC1(C(=O)O)CC1 ) reads > 25%

// inhibition lookup, molecule = N[C@@H](CO)C(=O)Nc1ccc2ccccc2c1 , result: > 25%

Documented inhibition of NC(C(=O)O)c1ccc([N+](=O)[O-])cc1 (stereo not given) : > 25%

So, O=C(O)[C@@H]1C[C@@H](Cc2ccccc2C(F)(F)F)CN1 ? Its inhibition was > 25%

The measured inhibition associated with O=C(O)[C@H]1NCCC1c1ccccc1 (stereo not given in full) reads > 25%

Lab book: inhibition of NC(C(=O)O)c1cccc([N+](=O)[O-])c1 (stereo not given) noted as > 25%

Reported inhibition for COC[C@H](N)C(=O)O was > 25%

N[C@@H](CSCc1ccccc1)C(=O)O yielded inhibition of > 25%

The recorded inhibition for entry O=C(O)C1C[C@@H](Cc2ccc(F)c(F)c2)CN1 (single isomer, unassigned) equals > 25%

// inhibition lookup, molecule = N[C@@H](CCS)C(=O)O , result: > 25%

Item: CCOC(=O)CC[C@H](N)C(=O)O | inhibition: > 25%

Per the records, this molecule ( N[C@H](C(=O)O)c1ccc(F)cc1 ) has inhibition equal to > 25%

inhibition reading for NC(Cc1c[nH]c2cccc(F)c12)C(=O)O (stereo not given) : > 25%

The recorded inhibition for O=C(O)[C@@H]1CCCN1 is > 25%

Reported inhibition ( NC(C(=O)O)c1ccc2c(c1)OCO2 (stereo not given) ) = > 25%

Kindly note the recorded inhibition for NC(=O)C[C@@H](N)C(=O)O , which is > 25%

So, O=C(O)C1C[C@@H](Cc2ccc(Cl)c(Cl)c2)CN1 (single isomer, unassigned) ? Its inhibition was > 25%

# inhibition (molecule: O=C(O)/C(=C/c1c(C(=O)O)[nH]c2cc(Cl)cc(Cl)c12)c1ccccc1 ) is > 25%

Just so you know, measured inhibition for N[C@@H](CCc1ccccc1)C(=O)O came out at > 25%
